# Test system: Streptococcus pyogenes SSI-9
# protocol.summary: Antibacterial activity assay of bead-derived peptides (three concentrations)
# Type: cell-based
# Design: key: +++: inhibition by the 640-fold diluted peptide solution; ++: inhibition by the 160-fold diluted solution; +: inhibition by the 40-fold diluted solution; -: no inhibition
# stated.conditions: S. pyogenes, bead-derived peptide solution, three concentrations
Where a SMILES comes first, the peptide text is derived from it. [ ]: non-standard residue; d: D form. The star is where a group is joined. NHCH2CH2OH = OCCN*; For = O=C*
readout: antibacterial activity

# compound, readout, reported
data = [
    ("CNC(=O)C[C@@H](NC(=O)[C@H](Cc1c[nH]c2ccccc12)NC(=O)[C@H](NC(=O)[C@H](Cc1c[nH]c2ccccc12)NC(=O)[C@@H](CC(C)C)NC(=O)[C@H](Cc1c[nH]c2ccccc12)NC(=O)[C@H](NC(=O)[C@@H](NC(=O)[C@@H](CC(C)C)NC(=O)[C@H](C)NC(=O)[C@H](NC(=O)[C@H](C)NC(=O)CNC(=O)[C@@H](NC=O)C(C)C)C(C)C)C(C)C)C(C)C)C(C)C)C(=O)N[C@@H](Cc1c[nH]c2ccccc12)C(=O)NCCO [compound 2425] (For-VGA[dV]A[dL]V[dV]W[dL]W[dV]W[dD](NHMe)W-NHCH2CH2OH)", "antibacterial activity", "-"),
    ("CC(C)C[C@@H](NC(=O)[C@H](C)NC(=O)[C@H](NC(=O)[C@H](C)NC(=O)CNC(=O)[C@@H](NC=O)C(C)C)C(C)C)C(=O)N[C@H](C(=O)N[C@@H](C(=O)N[C@@H](Cc1c[nH]c2ccccc12)C(=O)N[C@@H](C(=O)N[C@@H](Cc1c[nH]c2ccccc12)C(=O)N[C@H](CC(C)C)C(=O)N[C@@H](Cc1c[nH]c2ccccc12)C(=O)N[C@H](CC(C)C)C(=O)N[C@@H](Cc1c[nH]c2ccccc12)C(=O)NCCO)C(C)C)C(C)C)C(C)C [compound 7169] (For-VGA[dV]A[dL]V[dV]W[dV]W[dL]W[dL]W-NHCH2CH2OH)", "antibacterial activity", "+"),
]

Reference source for all entries: paper PMC7531004
